Sourced from patent US5220042A

# Measured Target: 5-lipoxygenase (Cavia porcellus, UniProt A0A286X958)
# Construct: endogenous in cells; host or cells: guinea pig (Hartley strain) casein-elicited peritoneal exudate cells, intact cell suspension
# Assay Protocol: 5-Lipoxygenase inhibitory activity (conversion of 14C-arachidonic acid to 5-HETE) in guinea pig peritoneal exudate cells
# Format: cell-based, guinea pig (Hartley strain)
# Cond: concentration 10^-6 M; read-out: inhibition ratio (%) of 5-lipoxygenase activity
Readout: inhibition at 1 µM (%)
Give the number; % is assumed, so skip it.

Tell me the measured inhibition at 1 µM of `CCCC/C=C\CCCCCCCCCC1=CC(=O)C=C(OC)C1=O` , please.
10

Tell me the measured inhibition at 1 µM of `COC1=CC(=O)C(OC)=C(CCCCCCCC2=C(OC)C(=O)C=C(OC)C2=O)C1=O` , please.
88

Tell me the measured inhibition at 1 µM of `COC1=CC(=O)C(OC)=C(CCCCCCCCCCC2=C(OC)C(=O)C=C(OC)C2=O)C1=O` , please.
89

Tell me the measured inhibition at 1 µM of COC1=CC(=O)C(OC)=C(CCCCCCCC2OC2CCCCCCCC2=C(OC)C(=O)C=C(OC)C2=O)C1=O (stereo not shown) , please.
86

----------
# System: SRS-A release from lung fragments
# Assay Protocol: Inhibition of SRS-A release from sensitized guinea pig lung fragments
# Format: cell-based, guinea pig (Hartley strain)
# Cond: Cavia porcellus, Table 2, dose 3 μM; read-out: Inhibition ratio (%) SRS-A
Readout: inhibition at 3 µM (%)
Give the number; % is assumed, so skip it.

Tell me the measured inhibition at 3 µM of COC1=CC(=O)C(OC)=C(CCCCCCCC#CCCCCCCCC2=C(OC)C(=O)C=C(OC)C2=O)C1=O [Test Compound No. 20] , please.
14.5

Tell me the measured inhibition at 3 µM of COC1=CC(=O)C(OC)=C(CCCCCC#CCCCCCC2=C(OC)C(=O)C=C(OC)C2=O)C1=O [Test Compound No. 16] , please.
23.4

Tell me the measured inhibition at 3 µM of COC1=CC(=O)C(OC)=C(CCCCCC2=C(OC)C(=O)C=C(OC)C2=O)C1=O [Test Compound No. 9] , please.
50.3

Tell me the measured inhibition at 3 µM of COC1=CC(=O)C(OC)=C(CCCCCCCCCCCCC2=C(OC)C(=O)C=C(OC)C2=O)C1=O [Test Compound No. 15] , please.
3.4

Tell me the measured inhibition at 3 µM of COC1=CC(=O)C(OC)=C(CCCCCCCC2=C(OC)C(=O)C=C(OC)C2=O)C1=O [Test Compound No. 11] , please.
32.5

Tell me the measured inhibition at 3 µM of COC1=CC(=O)C(OC)=C(CCCCCC2=C(OC)C(=O)C(C)=C(OC)C2=O)C1=O [Test Compound No. 18] , please.
62.9

Tell me the measured inhibition at 3 µM of COC1=CC(=O)C(OC)=C(CCCCCCCCC2=C(OC)C(=O)C=C(OC)C2=O)C1=O [Test Compound No. 12] , please.
26.9

Tell me the measured inhibition at 3 µM of COC1=CC(=O)C(OC)=C(CCCCCCCCCC2=C(OC)C(=O)C=C(OC)C2=O)C1=O [Test Compound No. 13] , please.
22.4

Tell me the measured inhibition at 3 µM of COC1=CC(=O)C(OC)=C(CCCCCCC2=C(OC)C(=O)C=C(OC)C2=O)C1=O [Test Compound No. 10] , please.
73.4

Tell me the measured inhibition at 3 µM of COC1=C(CCO)C(=O)C(OC)=C(CCCCCC2=C(OC)C(=O)C(CCO)=C(OC)C2=O)C1=O [Test Compound No. 19] , please.
40.6

Tell me the measured inhibition at 3 µM of COC1=CC(=O)C(OC)=C(CCCCCCCCCC#CCCCCCCCCCC2=C(OC)C(=O)C=C(OC)C2=O)C1=O [Test Compound No. 21] , please.
-21.7

Tell me the measured inhibition at 3 µM of COC1=C(C)C(=O)C(OC)=C(CCCCCC2=C(OC)C(=O)C(C)=C(OC)C2=O)C1=O [Test Compound No. 17] , please.
56.3

Tell me the measured inhibition at 3 µM of COC1=CC(=O)C(OC)=C(CCCCCCCCCCC2=C(OC)C(=O)C=C(OC)C2=O)C1=O [Test Compound No. 14] , please.
4.5

----------
# Measured Target: 5-lipoxygenase (Cavia porcellus)
# Construct: endogenous in cells; host or cells: guinea pig (Hartley strain) casein-elicited peritoneal exudate cells, intact cell suspension
# Sequence (A0A286X958 1-674): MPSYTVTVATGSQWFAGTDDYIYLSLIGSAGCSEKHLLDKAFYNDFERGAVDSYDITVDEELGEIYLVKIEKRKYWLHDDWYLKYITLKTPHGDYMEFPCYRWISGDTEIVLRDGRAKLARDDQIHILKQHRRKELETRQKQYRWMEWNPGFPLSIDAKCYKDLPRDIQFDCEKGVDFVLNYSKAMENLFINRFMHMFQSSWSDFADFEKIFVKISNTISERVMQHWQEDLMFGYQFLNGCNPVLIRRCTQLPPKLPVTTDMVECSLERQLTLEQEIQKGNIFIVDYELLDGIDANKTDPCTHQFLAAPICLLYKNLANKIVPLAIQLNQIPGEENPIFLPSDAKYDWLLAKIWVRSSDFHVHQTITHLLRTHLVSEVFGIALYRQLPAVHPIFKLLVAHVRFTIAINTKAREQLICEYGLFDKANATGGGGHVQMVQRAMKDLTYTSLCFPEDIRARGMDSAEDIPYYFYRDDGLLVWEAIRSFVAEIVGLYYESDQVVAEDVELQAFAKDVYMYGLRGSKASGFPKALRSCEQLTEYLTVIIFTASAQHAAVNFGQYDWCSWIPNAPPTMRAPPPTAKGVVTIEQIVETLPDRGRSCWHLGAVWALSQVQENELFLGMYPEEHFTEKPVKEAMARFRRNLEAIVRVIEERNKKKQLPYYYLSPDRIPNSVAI
# Assay Protocol: 5-Lipoxygenase inhibitory activity (conversion of 14C-arachidonic acid to 5-HETE) in guinea pig peritoneal exudate cells
# Format: cell-based, guinea pig (Hartley strain)
# Cond: concentration 10^-6 M; read-out: inhibition ratio (%) of 5-lipoxygenase activity
Readout: inhibition at 1 µM (%)
Give the number; % is assumed, so skip it.

Request - read-out inhibition at 1 µM | tested on 5-lipoxygenase (Cavia porcellus) | molecule `CCCCC#CCCCCCC1=C(OC)C(=O)C=C(OC)C1=O`
75

Request - read-out inhibition at 1 µM | tested on 5-lipoxygenase (Cavia porcellus) | molecule `COC1=CC(=O)C(O)=C(CCCCCCC/C=C\CCCCCCCC2=C(O)C(=O)C(C)=C(OC)C2=O)C1=O`
86

Request - read-out inhibition at 1 µM | tested on 5-lipoxygenase (Cavia porcellus) | molecule `CCCCC#CCCCCCCCC1=C(OC)C(=O)C=C(OC)C1=O`
73

Request - read-out inhibition at 1 µM | tested on 5-lipoxygenase (Cavia porcellus) | molecule `COC1=CC(=O)C(OC)=C(CCCCCC#CCCCCCC2=C(OC)C(=O)C=C(OC)C2=O)C1=O`
87

Request - read-out inhibition at 1 µM | tested on 5-lipoxygenase (Cavia porcellus) | molecule `COC1=CC(=O)C(OC)=C(CCCCCCCCCC2=C(OC)C(=O)C=C(OC)C2=O)C1=O`
91

Request - read-out inhibition at 1 µM | tested on 5-lipoxygenase (Cavia porcellus) | molecule `CCCC/C=C\CCCCCC1=C(OC)C(=O)C=C(OC)C1=O`
87

Request - read-out inhibition at 1 µM | tested on 5-lipoxygenase (Cavia porcellus) | molecule `CCCC/C=C\CCCCCCCC1=C(O)C(=O)C=C(OC)C1=O`
67

Request - read-out inhibition at 1 µM | tested on 5-lipoxygenase (Cavia porcellus) | molecule `COC1=CC(=O)C(OC)=C(CCCCCCCCC2=C(OC)C(=O)C=C(OC)C2=O)C1=O`
87

----------
# Measured Target: 5-lipoxygenase (Cavia porcellus, UniProt A0A286X958)
# Construct: endogenous in cells; host or cells: guinea pig (Hartley strain) casein-elicited peritoneal exudate cells, intact cell suspension
# Assay Protocol: 5-Lipoxygenase inhibitory activity (conversion of 14C-arachidonic acid to 5-HETE) in guinea pig peritoneal exudate cells
# Assay type: cell-based, guinea pig (Hartley strain)
# Cond: concentration 10^-6 M; read-out: inhibition ratio (%) of 5-lipoxygenase activity
I'd be grateful if you could share measured inhibition at 1 µM for these entries.
Quote the value and follow it with the unit of measurement.

Tell me the measured inhibition at 1 µM of `COC1=C(C)C(=O)C(OC)=C(CCCCCC2=C(OC)C(=O)C(C)=C(OC)C2=O)C1=O` , please.
89%

Tell me the measured inhibition at 1 µM of `CCCCC#CCCCCCCCCCC1=C(OC)C(=O)C=C(OC)C1=O` , please.
56%

Tell me the measured inhibition at 1 µM of `COC1=CC(=O)C(OC)=C(CCCCCCC2=C(OC)C(=O)C=C(OC)C2=O)C1=O` , please.
81%

Tell me the measured inhibition at 1 µM of `COC1=C(CCO)C(=O)C(OC)=C(CCCCCC2=C(OC)C(=O)C(CCO)=C(OC)C2=O)C1=O` , please.
87%
